Source: patent US10670605B2

# isoTOP-ABPP ratio Q9HAV7_C124 values compiled below
biological target: cysteines in MDA-MB-231 and Ramos cells (Homo sapiens); assay: Competitive isoTOP-ABPP in situ (fragment-treated cells); type: cell-based; settings: 200 μM, insitu, 231
Sequence (Q9HAV7 28-217): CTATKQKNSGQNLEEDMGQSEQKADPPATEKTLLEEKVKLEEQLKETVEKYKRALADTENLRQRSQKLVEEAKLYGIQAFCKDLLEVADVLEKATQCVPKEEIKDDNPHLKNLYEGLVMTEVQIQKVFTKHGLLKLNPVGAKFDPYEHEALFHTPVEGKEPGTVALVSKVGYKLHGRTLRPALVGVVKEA
The answer should be written as a number, with no unit following it.

Returns the measured isoTOP-ABPP ratio Q9HAV7_C124 for the input compound. Input: CC1CCc2ccccc2N1C(=O)CCl (stereo not shown) [compound 45] 2.1

Give its isoTOP-ABPP ratio Q9HAV7_C124 value. Item: O=C(CCl)NC12CC3CC(CC(C3)C1)C2 [compound 21] 1.7

Query (compound): O=C(CCl)NC(=O)NC12CC3CC(CC(C3)C1)C2 [compound 12] ; field requested: isoTOP-ABPP ratio Q9HAV7_C124 1.1

Request the reported isoTOP-ABPP ratio Q9HAV7_C124 associated with Cc1ccc(C=C(C#N)C(=O)NCCN2CCOCC2)cc1 [compound 41] 0.6

Name the recorded isoTOP-ABPP ratio Q9HAV7_C124 for CC(C)CCOCCNC(=O)CCl [compound 27] . 0.6

Give its isoTOP-ABPP ratio Q9HAV7_C124 value. Item: O=C(CCl)N1CCN(S(=O)(=O)c2ccccc2F)CC1 [compound 10] 1.0

I have this compound here, C=CC(=O)Nc1cc(F)c(N2CCN(C(=O)OC(C)(C)C)CC2)c(F)c1 [compound 38] , and I need its recorded isoTOP-ABPP ratio Q9HAV7_C124. 1.0

###

Below, each of the molecules is paired with its reported isoTOP-ABPP reactivity profile ratio, P09211_C48 value.
molecular target: UniProt P09211; test: Competitive isoTOP-ABPP, cell lysates; assay type: binding; conditions: 500 μm, in-vitro_ramos;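 on isoTOP-ABPP reactivity profile ratio, P09211 C48: Heavy/light ratio DMSO over fragment-treated so higher means more cysteine engagement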
Sequence (P09211 whole entry, the tested form may be a part): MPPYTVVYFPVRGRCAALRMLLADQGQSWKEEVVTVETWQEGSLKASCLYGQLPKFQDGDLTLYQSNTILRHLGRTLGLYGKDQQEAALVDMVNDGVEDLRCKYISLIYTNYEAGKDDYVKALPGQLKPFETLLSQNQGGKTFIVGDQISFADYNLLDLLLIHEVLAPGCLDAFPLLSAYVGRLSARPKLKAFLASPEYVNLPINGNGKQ

Here's what some known entries look like.
MOLECULE | MEASURED TARGET | MEASURED
O=C(CCl)Nc1ccc(-c2ccccc2)cc1 [compound 52] | UniProt P09211 | 1.9
O=C(CCl)Nc1cccc2ncccc12 [compound 51] | UniProt P09211 | 1.0
C=CC(=O)N1CCC(Cc2ccccc2)CC1 [compound 53] | UniProt P09211 | 1.2
COc1cc(NC(=O)CCl)cc(OC)c1 [compound 43] | UniProt P09211 | 2.2

Now look at this one.
Please look up its isoTOP-ABPP reactivity profile ratio, P09211_C48: N#CC(=Cc1ccc(-c2ccccc2Cl)o1)C(N)=O [compound 42] 0.7

###

molecular target: UniProtKB P09211; experiment: Competitive isoTOP-ABPP, cell lysates; assay type: binding; conditions: 500 μm in-vitro ramos_231
Each entry below carries its recorded isoTOP-ABPP ratio (reactivity profile), P09211_C48.

Examples with answers:
COMPOUND | MEASURED
O=C(CCl)N1CCOCC1 | 0.9
CC(Cl)C(=O)Nc1cc(C(F)(F)F)cc(C(F)(F)F)c1 (stereo not shown) | 1.8
O=C(CCl)NC12CC3CC(CC(C3)C1)C2 | 1.1
O=C(CCl)N1CCC(C(O)(c2ccccc2)c2ccccc2)CC1 | 2.5
COc1ccccc1OCCNC(=O)CCl | 1.3

Could you tell me which isoTOP-ABPP ratio (reactivity profile), P09211_C48 is on file for N#C/C(=C\c1cc(C(F)(F)F)cc(C(F)(F)F)c1)C(N)=O ? 0.8

Consider the compound shown here: O=C(CCl)N1CCN(CC(=O)N2CCOCC2)CC1 What is its recorded isoTOP-ABPP ratio (reactivity profile), P09211_C48? 1.0
